- testedOn: Solute carrier organic anion transporter family member 2B1 (Homo sapiens)
- measurementProtocol: Inhibition of human liver OATP2B1 expressed in HEK293 Flp-In cells assessed as reduction in [3H]E3S uptake at 20 uM incubated for 5 mins by scintillation counting
- measurementSetup: hek293, 5 min
assayMetric: INH (%)
Field format: number, assumed %, no unit text.

CCN(CC)CCNC(=O)c1ccc(N)cc1 [PROCAINAMIDE] : 17.8

Look up INH: "CC(C)CN(C[C@@H](O)[C@H](Cc1ccccc1)NC(=O)O[C@H]1CCOC1)S(=O)(=O)c1ccc(N)cc1"
-3.4

What do we get for "Oc1ncnc2[nH]ncc12" ?
8.4

What do we get for "COc1ccc(CCN2CCC(Nc3nc4ccccc4n3Cc3ccc(F)cc3)CC2)cc1" ?
58.9

What do we get for "CC(C)(C)NC(=O)[C@@H]1CN(Cc2cccnc2)CCN1C[C@@H](O)C[C@@H](Cc1ccccc1)C(=O)N[C@H]1c2ccccc2C[C@H]1O.O" ?
17.8

What do we get for "COC(=O)N[C@H](C(=O)N[C@@H](Cc1ccccc1)[C@@H](O)CN(Cc1ccc(-c2ccccn2)cc1)NC(=O)[C@@H](NC(=O)OC)C(C)(C)C)C(C)(C)C" ?
90.1

What do we get for NCCCC[C@H](N[C@@H](CCc1ccccc1)C(=O)O)C(=O)N1CCC[C@H]1C(=O)O [LISINOPRIL ANHYDROUS] ?
19.2

What do we get for "CCC1(c2ccccc2)C(=O)NC(=O)NC1=O" ?
11

====

- testedOn: Solute carrier organic anion transporter family member 2B1 (Homo sapiens, UniProt O94956)
- Sequence (O94956 whole entry): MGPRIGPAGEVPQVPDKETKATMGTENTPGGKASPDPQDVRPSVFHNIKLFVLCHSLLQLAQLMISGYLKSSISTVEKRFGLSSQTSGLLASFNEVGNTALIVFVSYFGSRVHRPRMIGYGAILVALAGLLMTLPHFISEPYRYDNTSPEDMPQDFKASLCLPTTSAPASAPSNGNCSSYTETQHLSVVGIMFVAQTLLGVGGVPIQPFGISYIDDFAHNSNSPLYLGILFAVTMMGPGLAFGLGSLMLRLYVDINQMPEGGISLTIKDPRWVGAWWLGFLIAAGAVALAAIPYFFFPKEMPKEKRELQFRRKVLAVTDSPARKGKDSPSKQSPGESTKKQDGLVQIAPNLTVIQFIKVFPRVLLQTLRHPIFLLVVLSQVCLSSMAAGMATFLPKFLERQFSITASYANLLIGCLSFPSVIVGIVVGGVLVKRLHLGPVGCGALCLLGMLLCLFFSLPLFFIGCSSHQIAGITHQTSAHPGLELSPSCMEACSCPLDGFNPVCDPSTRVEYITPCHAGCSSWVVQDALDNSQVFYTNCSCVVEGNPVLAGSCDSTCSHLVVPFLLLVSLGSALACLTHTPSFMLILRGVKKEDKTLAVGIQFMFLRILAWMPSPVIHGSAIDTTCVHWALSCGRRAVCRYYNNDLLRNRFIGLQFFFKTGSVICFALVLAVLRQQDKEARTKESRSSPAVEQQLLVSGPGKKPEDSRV
- measurementProtocol: Inhibition of human liver OATP2B1 expressed in HEK293 Flp-In cells assessed as reduction in [3H]E3S uptake at 20 uM incubated for 5 mins by scintillation counting
- measurementSetup: hek293, 5 min
assayMetric: INH (%)
Field format: number, assumed %, no unit text.

Answered cases to consult:
O=C1CC2(CCCC2)CC(=O)N1CCCCN1CCN(c2ncccn2)CC1 [BUSPIRONE] : -13.9
CCOc1ccc(-c2nc3cc(-c4nc5cc(N6CCN(C)CC6)ccc5[nH]4)ccc3[nH]2)cc1 : 12.7
CN(C)CCCN1c2ccccc2Sc2ccc(Cl)cc21 [CHLORPROMAZINE] : 4.3

Alright, here's another molecule for you.
Look up INH: "Cc1c(O)cccc1C(=O)N[C@@H](CSc1ccccc1)[C@H](O)CN1C[C@H]2CCCC[C@H]2C[C@H]1C(=O)NC(C)(C)C"
50

====

- testedOn: OATP1B1 (Homo sapiens)
- Sequence (Q9Y6L6 whole entry): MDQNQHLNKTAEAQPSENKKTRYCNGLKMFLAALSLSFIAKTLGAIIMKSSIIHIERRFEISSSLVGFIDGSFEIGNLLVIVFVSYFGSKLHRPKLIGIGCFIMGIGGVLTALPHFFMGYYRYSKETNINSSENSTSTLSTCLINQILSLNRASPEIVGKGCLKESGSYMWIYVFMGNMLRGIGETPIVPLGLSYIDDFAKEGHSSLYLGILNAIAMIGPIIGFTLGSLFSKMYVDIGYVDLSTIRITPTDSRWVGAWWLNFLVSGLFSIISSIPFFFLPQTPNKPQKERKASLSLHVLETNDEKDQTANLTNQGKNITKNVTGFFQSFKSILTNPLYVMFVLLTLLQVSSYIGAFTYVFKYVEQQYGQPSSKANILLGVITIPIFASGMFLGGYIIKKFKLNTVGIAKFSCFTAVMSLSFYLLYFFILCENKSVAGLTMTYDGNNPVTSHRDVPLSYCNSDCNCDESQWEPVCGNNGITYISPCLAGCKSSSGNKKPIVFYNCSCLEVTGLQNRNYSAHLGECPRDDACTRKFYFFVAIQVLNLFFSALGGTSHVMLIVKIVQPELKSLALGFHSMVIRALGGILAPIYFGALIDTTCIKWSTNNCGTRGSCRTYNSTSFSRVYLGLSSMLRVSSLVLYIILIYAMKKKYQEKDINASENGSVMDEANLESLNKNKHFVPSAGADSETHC
- measurementProtocol: Inhibition of human liver OATP1B1 expressed in HEK293 Flp-In cells assessed as reduction in E17-betaG uptake at 20 uM by scintillation counting
- measurementSetup: hek293
Items are presented alongside their recorded inhibition at 20 µM.
Field format: number, assumed %, no unit text.

Answered cases to consult:
Cc1ccc(-c2cc(C(F)(F)F)nn2-c2ccc(S(N)(=O)=O)cc2)cc1 [CELECOXIB] : -3.3
N[C@@H]1C[C@H]1c1ccccc1.N[C@H]1C[C@@H]1c1ccccc1 (relative stereo) [TRANYLCYPROMINE] : -9.5

Alright, here's another compound for you.
Look up inhibition at 20 µM: "CCOc1ccc(-c2nc3cc(-c4nc5cc(N6CCN(C)CC6)ccc5[nH]4)ccc3[nH]2)cc1"
48.1

====

- testedOn: Solute carrier organic anion transporter family member 1B1 (Homo sapiens, UniProt Q9Y6L6)
- Sequence (Q9Y6L6 whole entry): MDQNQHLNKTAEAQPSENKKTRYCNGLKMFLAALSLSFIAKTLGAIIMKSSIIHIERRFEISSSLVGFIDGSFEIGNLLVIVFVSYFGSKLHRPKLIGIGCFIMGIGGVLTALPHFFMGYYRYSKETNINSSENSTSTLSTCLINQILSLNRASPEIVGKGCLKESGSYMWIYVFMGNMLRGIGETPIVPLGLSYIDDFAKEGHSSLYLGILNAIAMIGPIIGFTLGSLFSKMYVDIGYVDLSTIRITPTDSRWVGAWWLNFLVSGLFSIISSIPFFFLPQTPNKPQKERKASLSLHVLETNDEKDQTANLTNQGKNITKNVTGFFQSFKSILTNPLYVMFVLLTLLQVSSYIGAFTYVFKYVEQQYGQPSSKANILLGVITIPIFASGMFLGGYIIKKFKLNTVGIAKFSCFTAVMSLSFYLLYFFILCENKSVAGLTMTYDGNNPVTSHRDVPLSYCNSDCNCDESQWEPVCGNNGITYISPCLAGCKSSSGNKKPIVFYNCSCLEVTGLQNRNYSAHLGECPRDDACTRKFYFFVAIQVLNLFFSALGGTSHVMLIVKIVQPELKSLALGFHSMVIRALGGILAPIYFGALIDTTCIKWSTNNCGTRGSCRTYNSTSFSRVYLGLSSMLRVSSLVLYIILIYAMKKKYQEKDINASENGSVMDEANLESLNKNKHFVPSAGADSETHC
- measurementProtocol: Inhibition of human liver OATP1B1 expressed in HEK293 Flp-In cells assessed as reduction in E17-betaG uptake at 20 uM by scintillation counting
- measurementSetup: hek293, 20 µM
Note to self: use rule met only for INH readings below 40%; a reading exactly at 40% still gets rule not met.

Consider the following illustrative entries.
CC[C@@]1(O)C(=O)OCc2c1cc1n(c2=O)Cc2cc3c(CN(C)C)c(O)ccc3nc2-1 [TOPOTECAN] : rule met
C=C[C@H]1C[N+]2(C)CC[C@H]1C[C@@H]2[C@@H](O)c1ccnc2ccc(OC)cc12 : rule met
CN(CCOc1ccc(CC2SC(=O)NC2=O)cc1)c1ccccn1 (configuration not stated) [ROSIGLITAZONE] : rule not met
C[N+](C)(C)CC(O)CC(=O)[O-] (configuration not stated) [CARNITINE] : rule met
C/C=C/C[C@@H](C)C(=O)[C@H]1C(=O)N[C@@H](C(C)C)C(=O)N(C)CC(=O)N(C)[C@@H](CC(C)C)C(=O)N[C@@H](C(C)C)C(=O)N(C)[C@@H](CC(C)C)C(=O)N[C@@H](C)C(=O)N[C@H](C)C(=O)N(C)[C@@H](CC(C)C)C(=O)N(C)[C@@H](CC(C)C)C(=O)N(C)[C@@H](C(C)C)C(=O)N1C [VALSPODAR] : rule not met

Criterion: INH strictly below 40%. Is it met by COc1ccc2c(c1)[C@]13CCCC[C@@H]1[C@H](C2)N(C)CC3 [DEXTROMETHORPHAN] ?
rule met

What do we get for Cc1nc2c([nH]1)c(=O)n(C)c(=O)n2Cc1ccco1 [FURAFYLLINE] ?
rule met

====

Items are presented alongside their recorded INH.
- testedOn: Solute carrier organic anion transporter family member 2B1 (Homo sapiens, UniProt O94956)
- measurementProtocol: Inhibition of human liver OATP2B1 expressed in HEK293 Flp-In cells assessed as reduction in [3H]E3S uptake at 20 uM incubated for 5 mins by scintillation counting
- measurementSetup: hek293, 5 min
Field format: number, assumed %, no unit text.

Cn1c(=O)c2[nH]cnc2n(C)c1=O.O [THEOPHYLLINE] : -25.5
COc1ccc2c(c1)[C@]13CCCC[C@@H]1[C@H](C2)N(C)CC3 [DEXTROMETHORPHAN] : 15.9
COc1ccc2c3c([nH]c2c1)[C@H](CC(C)C)N1C(=O)[C@H](CCC(=O)OC(C)(C)C)NC(=O)[C@@H]1C3 : 78.8

Look up INH: Clc1ccccc1CN1CCc2sccc2C1 [TICLOPIDINE]
23

What do we get for Nc1nc2c(ncn2COCCO)c(=O)[nH]1 [ACYCLOVIR] ?
-15.2

What do we get for OC(Cn1cncn1)(Cn1cncn1)c1ccc(F)cc1F [FLUCONAZOLE] ?
34.1

Numbers sourced from ChEMBL document CHEMBL2163248.
